target: Cytochrome P450 2C19 (Homo sapiens); assay: Cytochrome panel assay with activity outcomes; conditions: recombinant CYP, pro-luciferin dealkylation, luminescence, p450-cyp2c19; series mostly up to 57.1 µM
Among all 16,000 compounds or so, about 5,800 (36%) were called active. About 23% were inconclusive and are not listed. The list shows a part of the results.
METRIC: AC50

Some molecules with known AC50 results, for comparison:
MOLECULE: COc1ccc(-n2cnnc2)cc1
TESTED_ON: Cytochrome P450 2C19 (Homo sapiens)
AC50: inactive

MOLECULE: Clc1ccccc1-c1nc(NCc2cccs2)c2ccccc2n1
TESTED_ON: Cytochrome P450 2C19 (Homo sapiens)
AC50: 7.94 µM (active)

MOLECULE: Cc1noc(NS(=O)(=O)c2cccc3c(N(C)C)cccc23)c1C
TESTED_ON: Cytochrome P450 2C19 (Homo sapiens)
AC50: inactive

MOLECULE: Cn1nnnc1SCc1ccccc1[N+](=O)[O-]
TESTED_ON: Cytochrome P450 2C19 (Homo sapiens)
AC50: 25.1 µM (active)

MOLECULE: CCN(CC)CCNC(=O)c1cc(Cl)c(N)cc1OC
TESTED_ON: Cytochrome P450 2C19 (Homo sapiens)
AC50: inactive

MOLECULE: Cc1[nH]nc(N2CCCCCC2)c1[N+](=O)[O-]
TESTED_ON: Cytochrome P450 2C19 (Homo sapiens)
AC50: 6.31 µM (active)

MOLECULE: Cn1c(-c2ccc(F)cc2)cnc1NCc1cccc(F)c1
TESTED_ON: Cytochrome P450 2C19 (Homo sapiens)
AC50: 6.31 µM (active)

MOLECULE: Cc1ccc(-c2cnc(NC(=O)CCC(=O)N3CCCCC3)n2C)cc1
TESTED_ON: Cytochrome P450 2C19 (Homo sapiens)
AC50: inactive

Req: // returns reported AC50 for input Cc1cc(C)cc(-n2nnnc2-c2cn(C)nc2C(F)(F)F)c1
Resp: 2.51 µM (active)

Req: // returns reported AC50 for input CCC(=O)NC(NC(=O)CC)C(Cl)Cl
Resp: inactive

Req: // returns reported AC50 for input COc1ccc(-n2nnnc2-c2cn(C)nc2C(F)(F)F)cc1
Resp: 2.24 µM (active)

---

molecular target: Cytochrome P450 2C19 (Homo sapiens); assay: Cytochrome panel assay with activity outcomes; conditions: recombinant CYP, pro-luciferin dealkylation, luminescence, p450-cyp2c19; series mostly up to 57.1 µM
Screen size: about 16,000 compounds; about 5,800 (36%) were called active. About 23% were inconclusive and are not listed. Calls follow the shape of the dose curve; as a rule, active = well fitted curve in the direction sought with a large enough effect; inconclusive = small, poorly fitted or top-dose-only effect, or effect the other way; inactive = no such curve, though single readings can be large or run the other way. This is one part of the list.
Lab note: assign the record to one of active, inactive

Req: So what was the verdict on C=CCC(C)(NCc1ccccc1)c1ccco1 (centres undefined) in this test?
Resp: active

Req: So what was the verdict on COc1ccc(O[C@H]2C=C[C@@H](c3ccccc3)O[C@H]2COC(=O)CC/C(C)=N\OC[C@@H](O)[C@H]2O[C@H]3OC(C)(C)O[C@H]3[C@@H]2O)cc1 in this test?
Resp: active

Req: So what was the verdict on CCOc1ccc(OCC)c(-c2c(=O)n(OCc3ccc(C(C)(C)C)cc3)c3ccccc3[n+]2[O-])c1 in this test?
Resp: active

Req: So what was the verdict on COc1ccc(O[C@H]2C=C[C@@H](c3ccccc3)O[C@H]2CO/N=C2/[C@H]3O[C@@H]3[C@@H](O)[C@H]3[C@H]2CCn2c(=O)n(-c4ccccc4)c(=O)n23)cc1 in this test?
Resp: active

Req: So what was the verdict on O=C(CCN1C(=O)c2ccccc2C1=O)Oc1ccc2ccccc2c1 in this test?
Resp: inactive

Req: So what was the verdict on Oc1[nH]c2ccccc2c1/C=N/c1nccs1 in this test?
Resp: active

Req: So what was the verdict on CCOc1ccc(OCC)c(-c2c(=O)n(OCc3ccccc3C(=O)OC)c3ccccc3[n+]2[O-])c1 in this test?
Resp: active

Req: So what was the verdict on CCNc1ncc2nc(-c3cccs3)c(=O)n(CCC#N)c2n1 in this test?
Resp: inactive

Req: So what was the verdict on CC(C)NC[C@@H](O)COc1ccccc1-n1cccc1 in this test?
Resp: inactive
